System: HCT-116 colon
Assay: NCI-60 one-dose screen, 48 h (100 = growth as untreated, 0 = no growth, -100 = all killed)
Conditions: 10 µM unless noted
Experimental: Growth inhibition of the HCT-116 human tumor cell line is measured as a screen for anti-cancer activity. Cells are grown in 96 well plates and exposed to the test compound for 48 hours. Compounds are tested at a single concentration, which is 10^-5 M for most compounds. The reported endpoint is percent growth (GI% or GIPRCNT), where numbers from 0 - 100% represent growth inhibition, and numbers from -100% - 0 represent cell death. For example, a value of 40 represents 60% growth inhibition. […]
This is part of a sample that, as a whole, favours compounds with a hit. Of some 83,000 tested, about 20% had one in any assay.
Criterion: growth strictly under 60%. Met: y. Not met: n.

Reference set (3 entries):
Task: Say whether its growth is strictly beneath 60%. Entry: COC(=O)N[C@H]1CCc2cc(OC)c(OC)c(OC)c2-c2ccc(SC)c(=O)cc21
Result: y

Task: Say whether its growth is strictly beneath 60%. Entry: COC(=O)CCCCCCCCC1(C)C=CC(C(C)O)=CC1 (stereo not given)
Result: n

Task: Say whether its growth is strictly beneath 60%. Entry: CC1(C)NCCC[C@]2(C)[C@H]3CC=C4[C@@H]5C[C@@](C)(CO)CC[C@]5(C)CC[C@@]4(C)[C@]3(C)CC[C@@H]12
Result: y

---
Task: Say whether its growth is strictly beneath 60%. Entry: COc1ccc(C(O)c2cc3c(N)c(C(=O)Nc4ccc(Br)cc4)sc3nc2C)cc1 (stereo not given)
Result: y

Task: Say whether its growth is strictly beneath 60%. Entry: CCn1ccnc1C(=O)/C=C/c1ccc(CC(=O)Nc2ccc(F)cc2)cc1
Result: y

Task: Say whether its growth is strictly beneath 60%. Entry: CC1(C)[C@H](O)CC[C@]2(C)[C@@H]1CC[C@@]13C[C@@H](CC[C@H]12)[C@@](O)(CO)C3
Result: y

Task: Say whether its growth is strictly beneath 60%. Entry: COc1ccc(/C=N/C2=C(C#N)C(c3ccccc3[N+](=O)[O-])c3ccc4ccccc4c3O2)cc1 (stereo not given)
Result: n

Task: Say whether its growth is strictly beneath 60%. Entry: CN1CCN(c2cc(F)c(NC3=C(Cl)C(=O)c4ncccc4C3=O)c(F)c2)CC1
Result: y

Task: Say whether its growth is strictly beneath 60%. Entry: COc1cc(-c2nc3occn3c2-c2ccnc(NCCNS(=O)(=O)c3ccc(Cl)cc3)n2)ccc1F
Result: n

Task: Say whether its growth is strictly beneath 60%. Entry: COc1cccc2cc(-c3cc4ccccc4[nH]3)/c(=N/C(=S)Nc3ccc(C)cc3)oc12
Result: y
